Listed next: entries and their corresponding IC50.
Molecular target: CCR4 (Homo sapiens)
Construct: CEM Cells Endogenous Express CCR4; endogenous in cells; host or cells: CEM cells
Sequence (P51679 whole entry): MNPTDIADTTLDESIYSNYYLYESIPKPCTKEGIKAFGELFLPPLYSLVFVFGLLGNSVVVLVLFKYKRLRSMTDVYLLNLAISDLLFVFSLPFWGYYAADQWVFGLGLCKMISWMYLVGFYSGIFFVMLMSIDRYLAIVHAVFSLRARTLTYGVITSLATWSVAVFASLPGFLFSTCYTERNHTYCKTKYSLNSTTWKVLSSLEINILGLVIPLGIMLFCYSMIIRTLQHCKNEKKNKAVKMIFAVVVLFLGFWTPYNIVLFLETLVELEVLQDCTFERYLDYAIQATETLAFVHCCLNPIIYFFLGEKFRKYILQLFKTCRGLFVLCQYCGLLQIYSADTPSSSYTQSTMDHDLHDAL
Assay: CEM cell chemotaxis (migration) assay to CCL22 (MDC) in HBSS buffer with 0.1% BSA
Format: cell-based
Conditions: CEM cells in HBSS with 0.1% BSA; recombinant human CCL22 0.1 nM; 37° C. 60 minutes

[
  {
    "COMPOUND": "C[C@@H](Nc1nc(N2CC[C@@H](NC(=O)[C@H]3CCCN3)[C@@H](O)C2)ncc1Cl)c1ccc(Cl)cc1Cl",
    "IC50": "< 100 nM"
  },
  {
    "COMPOUND": "C[C@@H](Nc1nc(C2CCN(C3CCCN(CCC(=O)O)C3)CC2)ncc1Cl)c1ccc(Cl)cc1Cl (stereo partly shown)",
    "IC50": "< 100 nM"
  },
  {
    "COMPOUND": "C[C@@H](Nc1nc(C2=CCN(C(=O)[C@H]3CCCN3)CC2)ncc1Cl)c1ccc(Cl)cc1Cl",
    "IC50": "< 100 nM"
  },
  {
    "COMPOUND": "C[C@@H](Nc1nc(N2CCN(C(=O)C3(C)CNC3)CC2)ncc1Cl)c1ccc(Cl)cc1Cl",
    "IC50": "100 to 1000 nM"
  },
  {
    "COMPOUND": "C[C@@H](Nc1nc(N2CCN(C(=O)N(C)CCN(C)C)CC2)ncc1Cl)c1ccc(Cl)cc1Cl",
    "IC50": "< 100 nM"
  },
  {
    "COMPOUND": "C[C@@H](Nc1nc(N2CCN(C(=O)[C@@H]3CCN(C)C3)CC2)ncc1Cl)c1ccc(Cl)cc1Cl",
    "IC50": "< 100 nM"
  },
  {
    "COMPOUND": "C[C@@H](Nc1nc(N2CCN(C3CCCN(CC(=O)O)C3)CC2)ncc1Cl)c1ccc(Cl)cc1Cl (stereo partly shown)",
    "IC50": "< 100 nM"
  }
]
